- System: Saccharomyces cerevisiae BY4741 SeMeCo community
- Experimental Protocol: z-score of subpopulation abundance vs DMSO median, subpopulation auxotrophic for HLM; higher = larger share of this subpopulation than in DMSO controls
- Conditions: 10 µM; 24 h; SM minimal medium; subpopulation (auxotrophy): HLM
Structures can show the parent of a compound that is named as a salt.
Assay Metric: z-score of subpopulation abundance
No unit in the answer, only the number.

[Q] Find the measured z-score of subpopulation abundance of O=C(c1ccc(F)cc1)C1CCN(CCn2c(=O)[nH]c3ccccc3c2=O)CC1 and report it.
[A] -0.05

[Q] Find the measured z-score of subpopulation abundance of COc1ccc2cc([C@H](C)C(=O)O)ccc2c1 [Naproxen] and report it.
[A] 1.33

[Q] Find the measured z-score of subpopulation abundance of COc1ncnc(NS(=O)(=O)c2ccc(N)cc2)c1OC and report it.
[A] 0.02

[Q] Find the measured z-score of subpopulation abundance of C=C1CCC2C(C)(CO)C(O)CCC2(C)C1CC=C1C=COC1=O (stereo not drawn) [Dehydroandrographolide] and report it.
[A] 0.5

[Q] Find the measured z-score of subpopulation abundance of NS(=O)(=O)Cc1noc2ccccc12 [Zonisamide] and report it.
[A] 1.38

[Q] Find the measured z-score of subpopulation abundance of c1ccc(-c2ccc(C(c3ccccc3)n3ccnc3)cc2)cc1 (stereo not drawn) and report it.
[A] 2.32

[Q] Find the measured z-score of subpopulation abundance of NC[C@@H]1O[C@H](O[C@H]2[C@@H](O)[C@H](O[C@@H]3[C@@H](O)[C@H](N)C[C@H](N)[C@H]3O[C@H]3O[C@H](CN)[C@@H](O)[C@H](O)[C@H]3N)O[C@@H]2CO)[C@H](N)[C@@H](O)[C@@H]1O [Neomycin sulfate] and report it.
[A] -0.3

[Q] Find the measured z-score of subpopulation abundance of C[n+]1ccccc1C=NO [Pralidoxime Iodide] and report it.
[A] 0.32
